- Test System: Glucocorticoid receptor (Homo sapiens)
- Sequence (P04150 whole entry): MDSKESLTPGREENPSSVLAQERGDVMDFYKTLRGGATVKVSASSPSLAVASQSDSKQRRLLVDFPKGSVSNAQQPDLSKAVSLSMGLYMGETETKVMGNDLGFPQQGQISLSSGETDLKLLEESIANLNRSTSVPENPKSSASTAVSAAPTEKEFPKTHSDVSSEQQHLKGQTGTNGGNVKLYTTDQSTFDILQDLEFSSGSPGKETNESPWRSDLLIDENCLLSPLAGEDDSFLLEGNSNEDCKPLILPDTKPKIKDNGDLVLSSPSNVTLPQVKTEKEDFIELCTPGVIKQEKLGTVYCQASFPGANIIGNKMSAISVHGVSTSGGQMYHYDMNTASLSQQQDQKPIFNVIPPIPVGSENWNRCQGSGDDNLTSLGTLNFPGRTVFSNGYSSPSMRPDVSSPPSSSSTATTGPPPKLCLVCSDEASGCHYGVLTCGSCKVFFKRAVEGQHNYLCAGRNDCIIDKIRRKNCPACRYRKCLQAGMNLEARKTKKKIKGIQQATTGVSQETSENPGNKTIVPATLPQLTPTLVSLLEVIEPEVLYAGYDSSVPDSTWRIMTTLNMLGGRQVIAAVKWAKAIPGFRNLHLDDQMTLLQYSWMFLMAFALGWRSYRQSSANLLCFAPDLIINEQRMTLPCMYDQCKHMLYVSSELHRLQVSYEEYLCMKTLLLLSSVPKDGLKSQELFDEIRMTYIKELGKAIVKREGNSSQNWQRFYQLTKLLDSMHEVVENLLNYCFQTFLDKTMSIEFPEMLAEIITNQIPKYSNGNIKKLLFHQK
Quantity Name: IC50

Entry CC[C@H]1[C@@H](O)CC(=O)N1c1ccc(C#N)c(C(F)(F)F)c1 , tested on Glucocorticoid receptor (Homo sapiens), has a reported IC50 of > 10 µM

* * *

- Protocol Description: Oral bioavailability in Crl:CD(SD) rat at 1 mg/kg by LC-MS/MS analysis
- Assay type: ADME, organism-based
- Test Parameters: in vivo
Quantity Name: bioavailability (%)
Field: numeric (%). Do not append units.

Entry CC[C@H]1[C@@H](O)CC(=O)N1c1ccc(C#N)c(C(F)(F)F)c1 — recorded bioavailability = 74.6

* * *

- Protocol Description: Volume of distribution at steady state in Beagle dog at 0.1 mg/kg, iv by LC-MS/MS analysis
- Assay type: ADME, organism-based, Canis lupus familiaris
- Test Parameters: in vivo, read-out: Vdss
Quantity Name: Vd

Entry CC[C@H]1[C@@H](O)CC(=O)N1c1ccc(C#N)c(C(F)(F)F)c1 — recorded Vd = 3.3 L/kg

* * *

- Protocol Description: Total clearance in Crl:CD(SD) rat at 0.1 mg/kg, iv by LC-MS/MS analysis
- Format: ADME, organism-based
- Test Parameters: in vivo
Quantity Name: clearance (mL/min/kg)
Field: numeric (mL/min/kg). Do not append units.

Entry CC[C@H]1[C@@H](O)CC(=O)N1c1ccc(C#N)c(C(F)(F)F)c1 — recorded clearance = 15.6

* * *

- Protocol Description: Cmax in cynomolgus monkey at 1 mg/kg, po by LC-MS/MS analysis
- Format: ADME, organism-based, Macaca fascicularis
- Set-up: dose 1 mg/kg, route oral
- Test Parameters: in vivo
Quantity Name: Cmax (ng/mL)
Field: numeric (ng/mL). Do not append units.

Entry CC[C@H]1[C@@H](O)CC(=O)N1c1ccc(C#N)c(C(F)(F)F)c1 — recorded Cmax = 71.2

* * *

- Test System: UniProt P10275
- Sequence (P10275 whole entry): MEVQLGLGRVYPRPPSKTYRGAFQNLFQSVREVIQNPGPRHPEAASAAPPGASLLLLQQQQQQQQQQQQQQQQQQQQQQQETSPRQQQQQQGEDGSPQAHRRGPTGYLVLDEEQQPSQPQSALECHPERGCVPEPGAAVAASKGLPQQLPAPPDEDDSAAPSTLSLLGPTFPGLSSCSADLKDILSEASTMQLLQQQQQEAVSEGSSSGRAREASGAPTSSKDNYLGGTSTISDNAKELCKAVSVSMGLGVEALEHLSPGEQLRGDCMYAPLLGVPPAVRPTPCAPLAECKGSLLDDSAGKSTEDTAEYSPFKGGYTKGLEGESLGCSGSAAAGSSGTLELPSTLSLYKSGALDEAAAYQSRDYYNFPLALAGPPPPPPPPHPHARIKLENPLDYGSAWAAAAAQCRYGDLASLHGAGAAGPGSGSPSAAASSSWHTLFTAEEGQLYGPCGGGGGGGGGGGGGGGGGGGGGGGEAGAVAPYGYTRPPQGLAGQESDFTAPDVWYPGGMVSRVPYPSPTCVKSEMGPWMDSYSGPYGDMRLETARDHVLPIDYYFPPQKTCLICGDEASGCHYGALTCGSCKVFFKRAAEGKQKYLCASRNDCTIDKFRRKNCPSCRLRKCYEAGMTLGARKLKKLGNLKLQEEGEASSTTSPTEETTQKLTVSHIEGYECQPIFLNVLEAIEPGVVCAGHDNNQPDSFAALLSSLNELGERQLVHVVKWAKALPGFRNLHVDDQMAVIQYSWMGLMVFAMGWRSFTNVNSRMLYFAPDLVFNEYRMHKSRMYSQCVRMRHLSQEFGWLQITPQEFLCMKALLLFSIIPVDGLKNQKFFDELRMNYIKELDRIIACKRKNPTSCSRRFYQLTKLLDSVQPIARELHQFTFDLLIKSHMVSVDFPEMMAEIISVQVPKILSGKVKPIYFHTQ
Listing of entries alongside the reported log10 IC50.
A value of 2 here means IC50 of 100 in nM, since values are log10.

Answered examples (6):
| Structure Smiles String | Result Value |
| --- | --- |
| C[C@@H]1C(=O)N(c2ccc(C#N)c(Cl)c2)[C@@H](C)[C@H]1O | 0.11 |
| C[C@H]1[C@@H](O)C(C)(C)C(=O)N1c1ccc(C#N)c(Cl)c1 | 1.15 |
| C[C@@H]1N(c2ccc(C#N)c(Cl)c2)C(=O)C[C@]1(C)O | 1.18 |
| CC[C@H]1[C@H](O)CC(=O)N1c1ccc(C#N)c(Cl)c1 | 0.53 |
| C[C@H]1[C@@H](O)CC(=O)N1c1ccc(C#N)c(Cl)c1 | 0.89 |
| C[C@@H]1[C@H](O)C(C)(C)C(=O)N1c1ccc(C#N)c(Cl)c1 | 3.82 |

Entry N#CC[C@H]1[C@@H](O)CC(=O)N1c1ccc(C#N)c(Cl)c1 , tested on UniProt P10275, has a reported log10 IC50 of 1.15

Entry Cc1c(N2C(=O)C[C@H](O)[C@@H]2C)ccc(C#N)c1Cl , tested on UniProt P10275, has a reported log10 IC50 of 1.04

Entry CC[C@H]1[C@@H](O)CC(=O)N1c1ccc(C#N)c(OC)c1 , tested on UniProt P10275, has a reported log10 IC50 of 0.96

Entry CC[C@H]1[C@@H](O)[C@H](C)C(=O)N1c1ccc(C#N)c(Cl)c1 , tested on UniProt P10275, has a reported log10 IC50 of 0.26

* * *

- Protocol Description: MRT in Crl:CD(SD) rat at 1 mg/kg, po by LC-MS/MS analysis
- Format: ADME, organism-based
- Test Parameters: in vivo
Listing of entries alongside the reported MRT.
Just so you know, I need the unit written after the number.

| Structure Smiles String | Result Value |
| --- | --- |
| CC[C@H]1[C@@H](O)CC(=O)N1c1ccc(C#N)c(C(F)(F)F)c1 | 3.06 h |

Entry Cc1c(N2C(=O)C[C@H](O)[C@@H]2C)ccc(C#N)c1Cl — recorded MRT = 4.06 h

* * *

- Protocol Description: Oral bioavailability in Beagle dog at 1 mg/kg by LC-MS/MS analysis
- Type: ADME, organism-based, Canis lupus familiaris
- Test Parameters: in vivo
Quantity Name: bioavailability
Just so you know, I need the unit written after the number.

Entry CC[C@H]1[C@@H](O)CC(=O)N1c1ccc(C#N)c(C(F)(F)F)c1 — recorded bioavailability = 76.6%

* * *

Listing of entries alongside the reported Cmax.
- Protocol Description: Cmax in Crl:CD(SD) rat at 1 mg/kg, po by LC-MS/MS analysis
- Type: ADME, organism-based
- Parameters: dose 1 mg/kg, route oral
- Test Parameters: in vivo
Field: numeric (ng/mL). Do not append units.

| Structure Smiles String | Cmax / ng/mL |
| --- | --- |
| Cc1c(N2C(=O)C[C@H](O)[C@@H]2C)ccc(C#N)c1Cl | 1070 |

Now look at this one.
Entry CC[C@H]1[C@@H](O)CC(=O)N1c1ccc(C#N)c(C(F)(F)F)c1 — recorded Cmax = 218

* * *

- Protocol Description: Clearance in human liver microsomes at 1 uM after 60 mins in presence of NADPH by UPLC analysis
- Assay type: ADME, microsome
- Test Parameters: read-out: CLH
Listing of entries alongside the reported microsomal CLint at 1 µM.
Field: numeric (µL/min/mg). Do not append units.

Answered examples (4):
| Structure Smiles String | microsomal CLint at 1 µM / µL/min/mg |
| --- | --- |
| CC[C@H]1[C@@H](O)CC(=O)N1c1ccc(C#N)c(OC)c1 | 2 |
| Cc1c(N2CC[C@H](O)[C@@H]2C)ccc(C#N)c1Cl | 67 |
| CC[C@H]1[C@@H](O)CC(=O)N1c1ccc(C#N)c(Cl)c1 | 2 |
| C[C@@H]1C(=O)N(c2ccc(C#N)c(Cl)c2)[C@@H](C)[C@H]1O | 2 |

Now look at this one.
Entry Cc1c(N2C(=O)C[C@H](O)[C@@H]2C)ccc(C#N)c1Cl — recorded microsomal CLint at 1 µM = 5

* * *

- Protocol Description: AUC (0 to 24 hrs) in Crl:CD(SD) rat at 1 mg/kg, po by LC-MS/MS analysis
- Format: ADME, organism-based
- Parameters: dose 1 mg/kg, time < 24 hr, route oral
- Test Parameters: in vivo
Quantity Name: AUC(0-t) at 24 h (ng·h/mL)
Field: numeric (ng·h/mL). Do not append units.

| Structure Smiles String | AUC(0-t) at 24 h, ng·h/mL |
| --- | --- |
| CC[C@H]1[C@@H](O)CC(=O)N1c1ccc(C#N)c(C(F)(F)F)c1 | 809 |

Now look at this one.
Entry Cc1c(N2C(=O)C[C@H](O)[C@@H]2C)ccc(C#N)c1Cl — recorded AUC(0-t) at 24 h = 7340

* * *

- Protocol Description: MRT in Crl:CD(SD) rat at 0.1 mg/kg, iv by LC-MS/MS analysis
- Assay type: ADME, organism-based
- Test Parameters: in vivo
Quantity Name: MRT (h)
Field: numeric (h). Do not append units.

Entry CC[C@H]1[C@@H](O)CC(=O)N1c1ccc(C#N)c(C(F)(F)F)c1 — recorded MRT = 2.32
